test: Solubility of DBAB achieved by solvents; type: physicochemical; settings: PEG.PPG-17.6 copolymer, organic solvent or mixture; read-out: solubility of DBAB achieved by PEG.PPG-17.6 copolymer
Reported Metric: solubility
Express the reported value numerically, then name its unit.

Ask: So what's the measured solubility for this one? "COc1cc(OC)c(C23CC4CC(CC(C4)C2)C3)cc1C(=O)NCc1ccc(O)cc1O"
Result: 81.3 mg/mL

====

assay: Solubility of DBAB achieved by solvents; type: physicochemical; conditions: propanediol, organic solvent or mixture; read-out: solubility of DBAB achieved by propanediol
Reported Metric: solubility (µg/mL)
Your answer is read as µg/mL, so omit the unit and give the number.

Ask: For the molecule "COc1cc(OC)c(C23CC4CC(CC(C4)C2)C3)cc1C(=O)NCc1ccc(O)cc1O" , what solubility is on record?
Result: 5920
